- Test system: HCC-2998 colon
- Assay Summary: NCI-60 one-dose screen, 48 h (100 = growth as untreated, 0 = no growth, -100 = all killed)
- Condition Label: 10 µM unless noted
The panel holds about 83,000 compounds, 20% with a hit somewhere; the sample as a whole holds those more often.
Listed next: entries and their corresponding growth.
# value in %; strip the unit string

Below are worked cases with known answers.
>>> df
                                   compound   tested_system  readout_type  reading
0  O=C1c2cc3c(cc2-c2c1c1ccc(F)cc1c(=O)n2C[C@H](O)[C@H](O)[C@H](O)CO)OCO3  HCC-2998 colon        growth    -50.2
1  COc1cc2c(cc1-c1c(C)noc1C)ncc1nc(C3CCC(F)(F)CC3)n([C@H](C)COC(F)F)c12  HCC-2998 colon        growth     46.4

Looking for the measured growth of CCNC(=O)Oc1ccc(/C(=C(\C)c2ccc(Cl)cc2)c2ccc(OCCN3CCCCC3)cc2)cc1 , can you help? 75.1

And then Cc1c(/C=C/[N+](=O)[O-])ccc2c1[nH]c1ccccc12 , what is it? -30.7

And then COc1ccc2cc(-c3nn(-c4ccc(C(=O)O)cc4)cc3CO)ccc2c1 , what is it? 100

And then COc1cc(C)c(C2C(C#N)=C(N)Oc3n[nH]c(-c4cccs4)c32)cc1C(C)C (centres undefined) , what is it? 93.5

And then Cn1cccc1-c1nc2c3c(ccc2[nH]1)C(=O)c1ccccc1C3=O , what is it? 86.3

Recorded values, source PubChem BioAssay (NCI).
